Consider the following IC50 data for PKC mu (Homo sapiens), collected from several reports.

- Record smiles: "CC[C@@H](N)CN(C)c1ccnc(-c2cc(Cl)ccc2O)n1"
  Units symbol: "nM"
  IC50: 0.9
- Record smiles: "CN1CCN(c2ccc(Nc3ncc(C(F)(F)F)c(NC4CC(C)(C)N(C)C(C)(C)C4)n3)cc2C(F)(F)F)CC1"
  Units symbol: "nM"
  IC50: 33
- Record smiles: "COc1cc(-c2nc(-c3cccc(C(=O)NCCN(C)C)c3)cnc2N)ccc1O"
  Units symbol: "nM"
  IC50: 4
- Record smiles: "CN1CCN(c2ccc(Nc3ncc4cc(C#N)c(=O)n(C5CCCC5)c4n3)cc2)CC1"
  Units symbol: "nM"
  IC50: 142
